Listed below: Activity values for each entry.
assay.explanation: Chronotropic effect in New Zealand White rabbit left atrium assessed as change in heart rate by electrocardiogram analysis relative to control
Type: tissue-based, Oryctolagus cuniculus, Cardiac atrium
recorded.metric: Activity

O=C(CN1CCCN(Cc2ccccc2)CC1)Nc1ccc2c(c1)CCc1n[nH]c(=O)n1-2 : 90.01 bpm
O=C(CN1CCCN(Cc2ccc(Cl)cc2)CC1)Nc1ccc2c(c1)CCc1n[nH]c(=O)n1-2 : 121.68 bpm
O=C(CN1CCCN(Cc2ccccc2Cl)CC1)Nc1ccc2c(c1)CCc1n[nH]c(=O)n1-2 : 118.36 bpm
O=C(CN1CCN(C/C=C/c2ccccc2)CC1)Nc1ccc2c(c1)CCc1n[nH]c(=O)n1-2 : 99.89 bpm
Cc1ccc(CN2CCCN(CC(=O)Nc3ccc4c(c3)CCc3n[nH]c(=O)n3-4)CC2)cc1 : 111.86 bpm
O=C(CN1CCCN(Cc2cccc(Cl)c2)CC1)Nc1ccc2c(c1)CCc1n[nH]c(=O)n1-2 : 120.84 bpm
